Measured values drawn from patent US20230242651A1 for this set.

Below, each of the binders is paired with its reported pKd value.
Target: T1, human interleukin-23 receptor (IL23R) (human, UniProt Q5VWK5 24-355, limits assumed)
T1 construct: also called human IL23R
T1 sequence (looked up): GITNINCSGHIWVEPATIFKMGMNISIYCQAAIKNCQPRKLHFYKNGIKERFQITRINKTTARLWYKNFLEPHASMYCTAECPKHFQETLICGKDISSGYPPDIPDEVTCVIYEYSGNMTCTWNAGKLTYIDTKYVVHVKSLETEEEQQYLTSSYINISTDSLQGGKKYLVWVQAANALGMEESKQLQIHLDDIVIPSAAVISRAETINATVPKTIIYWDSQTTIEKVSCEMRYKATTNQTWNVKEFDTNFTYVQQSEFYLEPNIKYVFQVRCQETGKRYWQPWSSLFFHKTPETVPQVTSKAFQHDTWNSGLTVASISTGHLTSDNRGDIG
Experiment: SPR, scFv
# reply with the number alone; pKd is -log10 of concentration in mol/L

Observe how each entry below is paired with its result.
[Q] Entry under review: Vκ2/VH1A consensus λ-capped, human IL23R specific scFv (scFv, scFv VL-linker-VH, made in E. coli; also called Vκ2VH1A capped) scFv: DIVMTQSPLSLPVTPGEPASISCQASENIYSFLAWYLQKPGQSPQLLIYSASKLAAGVPDRFSGSGSGTDFTLKISRVEAEDVGVYYCQQTNRYSNPDIYNVFGGGTKLTVLGGGGGSGGGGSGGGGSGGGGSQVQLVQSGAEVKKPGSSVKVSCKASGIDFNSNYYMCWVRQAPGQGLEWMGCIYVGSHVNTYYANWAKGRVTITADESTSTAYMELSSLRSEDTAVYYCATSGSSVLYFKFWGQGTLVTVSS . Reported pKd?
[A] 10.11

[Q] Moving on to Vκ1/VH3 consensus (uncapped), human IL23R specific scFv (scFv, scFv VL-linker-VH, made in E. coli; Vκ framework IV (uncapped, full consensus); also called Vκ1VH3 uncapped) scFv: DIQMTQSPSSLSASVGDRVTITCQASENIYSFLAWYQQKPGKAPKLLIYSASKLAAGVPSRFSGSGSGTDFTLTISSLQPEDFATYYCQQTNRYSNPDIYNVFGQGTKVEIKRGGGGSGGGGSGGGGSGGGGSEVQLVESGGGLVQPGGSLRLSCAASGIDFNSNYYMCWVRQAPGKGLEWVSCIYVGSHVNTYYANWAKGRFTISRDNSKNTLYLQMNSLRAEDTAVYYCATSGSSVLYFKFWGQGTLVTVSS
[A] 10.46

More entries:
[Q] pKd for Vκ3/VH5 consensus (uncapped), human IL23R specific scFv (scFv, scFv VL-linker-VH, made in E. coli; Vκ framework IV (uncapped, full consensus); also called Vκ3VH5 uncapped) scFv: DIVLTQSPATLSLSPGERATLSCQASENIYSFLAWYQQKPGQAPRLLIYSASKLAAGVPARFSGSGSGTDFTLTISSLEPEDFAVYYCQQTNRYSNPDIYNVFGQGTKVEIKRGGGGSGGGGSGGGGSGGGGSEVQLVQSGAEVKKPGESLKISCKGSGIDFNSNYYMCWVRQMPGKGLEWMGCIYVGSHVNTYYANWAKGQVTISADKSISTAYLQWSSLKASDTAMYYCATSGSSVLYFKFWGQGTLVTVSS ?
[A] 9.28
